target: PARP-1 F2 (Homo sapiens, UniProt P09874 103-214); assay: fluorescence anisotropy; 100; 50 mM Tris-HCl pH 7.0, 150 uM ZnSO4, 4 mM DTT, 25 C; NaCl 0-200 mM (T2, as in cof; 10 nM DNA) or 25 mM (T3 mutants; 25 nM DNA); details: protein: recombinant; label: fluorescein-dT at T8; single-chain dumbbell, 18 bp with central nick, two tetraloops
Sequence (P09874 103-214): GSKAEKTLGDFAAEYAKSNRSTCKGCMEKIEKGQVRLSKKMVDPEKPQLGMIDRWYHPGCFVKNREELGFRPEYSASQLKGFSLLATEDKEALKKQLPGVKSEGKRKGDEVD
Property label: pKd
# pKd: negative log10 of molar concentration; output just the value

Request: What value of measured pKd is listed for CGGTCGATCGTAAGATCGACCGGCGCTGGAGCTTGCTCCAGCGC (structured_DNA, 5'-phosphate) [44-nt nicked dumbbell, 5'-phosphate, fluorescein-dT] ?
Result: 6.84

# credit: paper PMC3094755
